Would you kindly list phosphorylation enrichment for each of these sequences?
- testedTarget: Fes (UniProt P07332)
- Sequence (P07332 whole entry, looked up): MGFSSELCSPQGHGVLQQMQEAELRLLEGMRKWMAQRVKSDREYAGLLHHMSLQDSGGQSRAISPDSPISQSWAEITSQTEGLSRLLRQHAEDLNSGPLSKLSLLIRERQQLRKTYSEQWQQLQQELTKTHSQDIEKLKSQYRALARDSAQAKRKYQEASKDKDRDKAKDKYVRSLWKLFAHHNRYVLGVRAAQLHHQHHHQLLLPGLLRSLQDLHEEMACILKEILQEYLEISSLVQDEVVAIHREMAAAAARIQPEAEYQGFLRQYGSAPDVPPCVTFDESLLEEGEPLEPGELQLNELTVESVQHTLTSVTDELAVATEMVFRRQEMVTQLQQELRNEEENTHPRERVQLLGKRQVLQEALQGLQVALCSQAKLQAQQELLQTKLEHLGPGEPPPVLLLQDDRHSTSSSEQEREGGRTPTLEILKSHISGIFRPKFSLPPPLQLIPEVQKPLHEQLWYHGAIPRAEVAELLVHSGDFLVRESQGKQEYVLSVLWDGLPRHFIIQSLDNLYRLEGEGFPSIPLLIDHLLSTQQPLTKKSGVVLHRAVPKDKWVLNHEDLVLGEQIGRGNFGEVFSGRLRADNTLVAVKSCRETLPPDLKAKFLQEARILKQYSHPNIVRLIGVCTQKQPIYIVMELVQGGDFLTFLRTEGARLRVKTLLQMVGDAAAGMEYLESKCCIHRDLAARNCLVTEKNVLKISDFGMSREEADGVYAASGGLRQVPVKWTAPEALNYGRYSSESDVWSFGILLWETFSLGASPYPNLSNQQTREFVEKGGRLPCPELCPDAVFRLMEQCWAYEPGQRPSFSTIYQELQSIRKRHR
- experimentalDetails: phosphorylation enrichment, bacterial display (enrichment ratio); higher = better substrate or ligand; peptides without Tyr show the background;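 further: 11-residue human phosphosite peptides and single-mutation variants displayed on the E. coli surface, counted by deep sequencing, each peptide's frequency after selection divided by its frequency in the unselected input library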;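 further: frequency after pTyr selection over input frequency; kinase dosed for 20-30% of maximal phosphorylation in three min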
// keep it numeric: no unit symbol after the value

Prompt: phosphorylation enrichment for VLTSKYCGGGG [HBA1_Y141_R142C] ?
Completion: 0.772

Prompt: Input KLVQLYDVCTK [BTK_Y461_G462D]
Completion: 1.03

Prompt: Input FDNSVYQKTTE [LDLR_Y828_P826S]
Completion: 0.913

Prompt: Input NVGGKYSYLKV [GRM3_Y478]
Completion: 0.65

Prompt: Input AADGRYEVLFL [SEMA3F_Y478]
Completion: 1.01

Prompt: Input SIKDKYVTAFY [KCNH2_Y611_L615F]
Completion: 0.67

Prompt: Input PTEAQYRFIFM [PTPN11_Y511_Q506P_YF]
Completion: 1.81

Prompt: Input RNAAEYLLSSG [ABL1_Y139]
Completion: 0.723

Prompt: Input DVVKDCAFVHM [RBM14_Y114_Y114C]
Completion: 0.993

Prompt: Input QSHKVYFQHLL [POR_Y604_V605F]
Completion: 1.52

Prompt: Input AEYGLYGAMVW [VSX2_Y222_R227W]
Completion: 1.37

Prompt: Input CTLLPYYSAPV [DGKE_Y269_R273P]
Completion: 1.71

Prompt: Input HKGASYVFRLS [PTPRD_Y891]
Completion: 1.34

Prompt: Input QRNEEYCLLDS [ITK_Y198_R193Q]
Completion: 2.35

FYI, the data here is from the supplement of paper PMC10065799.
